# assay procedure: Staining of lysed whole blood, fluorescence by flow cytometry
# Format: cell-based, human
# test parameters: human, white blood cells; 8 uM, t=0
quantity name: percentage of dead (leaky) cells at 0 h, 8 µM (%)
Form entry: value (%) — number only.

Answer with the recorded percentage of dead (leaky) cells at 0 h, 8 µM for the molecule listed here: CCCC(=O)Oc1ccc2c3c(ccc2c1)C1(OS(=O)(=O)c2ccccc21)c1ccc2cc(OC(=O)CCC)ccc2c1O3 [Compound 14, Vita Blue dibutyrate]
12

* * *

# assay procedure: Absorbance maximum and extinction coefficient
# Assay type: physicochemical
# test parameters: pH 9.5
Some molecules, each annotated with its measured Abs Max.
Answer format: value, then unit.

- molecule: "O=c1ccc2c(-c3ccccc3S(=O)(=O)O)c3ccc(O)cc3oc-2c1"
  Abs Max: "497 nm"
- molecule: "O=c1cc2oc3cc(O)c4ccccc4c3c(-c3ccccc3S(=O)(=O)O)c-2c2ccccc12"
  Abs Max: "541 nm"
- molecule: "O=C(O)c1ccccc1-c1c2ccc(=O)cc-2oc2cc(O)ccc12"
  Abs Max: "491 nm"
- molecule: "O=C(O)c1ccccc1-c1c2ccc3cc(O)ccc3c2oc2c1ccc1cc(=O)ccc12"
  Abs Max: "595 nm"
- molecule: "CN(C)c1ccc2c(-c3ccccc3C(=O)O)c3ccc(=O)cc-3oc2c1"
  Abs Max: "522 nm"

Answer with the recorded Abs Max for the molecule listed here: "O=C(O)c1ccccc1-c1c2ccc3c(Br)c(O)ccc3c2oc2c1ccc1c(Br)c(=O)ccc12"
605 nm

Answer with the recorded Abs Max for the molecule listed here: "O=c1ccc2c(ccc3c(-c4ccccc4S(=O)(=O)O)c4ccc5cc(O)ccc5c4oc32)c1"
609 nm

Answer with the recorded Abs Max for the molecule listed here: "O=C(O)c1ccccc1-c1c2c3ccccc3c(=O)cc-2oc2cc(O)c3ccccc3c12"
534 nm

Answer with the recorded Abs Max for the molecule listed here: "O=C(O)c1ccccc1-c1c2c3ccccc3c(=O)c(Br)c-2oc2c(Br)c(O)c3ccccc3c12"
549 nm

Source of measurements: patent US5066580A
